test system: PAD; assay: qHTS profiling for inhibitors of Plasmodium falciparum proliferation (AID 504749); also: nearly all actives have a fitted effect of over 60% in size; also: potency is read from the fitted curve at half-maximal effect; conditions: P. falciparum in erythrocytes, SYBR Green DNA, 72 h; series mostly up to 28.7 µM
Results filed as inconclusive are left out. Calls of active or inactive are those of the source. Calls follow the shape of the dose curve; as a rule, active = well fitted inhibition curve with a large enough effect; inconclusive = small, poorly fitted or top-dose-only effect; inactive = flat fitted curve, though single readings scatter.
Parameter: Potency

Worked set:
[[record]]
compound = "CC(C)NCC(O)c1ccccc1Cl (centres undefined)"
parameter = "Potency"
test_value = "7.94 µM (active)"

[[record]]
compound = "CCN(CC)CCOC(=O)C(O)(c1ccccc1)c1ccccc1"
parameter = "Potency"
test_value = "inactive"

[[record]]
compound = "Oc1cc(Cl)ccc1Oc1ccc(Cl)cc1Cl"
parameter = "Potency"
test_value = "5.01 µM (active)"

[[record]]
compound = "CCN(C(C)=O)c1cccc(-c2ccnc3c(C#N)cnn23)c1"
parameter = "Potency"
test_value = "inactive"

[[record]]
compound = "CCCC1CCCCN1 (centres undefined)"
parameter = "Potency"
test_value = "inactive"

[[record]]
compound = "COc1ccc(C(=O)c2c(C)n(CCN3CCOCC3)c3ccccc23)cc1"
parameter = "Potency"
test_value = "inactive"


What the record says about CCC1(C2=NCCN2)Cc2ccccc2O1 (centres undefined) : Potency is inactive

What the record says about C=C1CC[C@@]2(O)[C@H]3Cc4ccc(O)c5c4[C@@]2(CCN3CC2CC2)[C@H]1O5 : Potency is inactive

What the record says about CCOP(=S)(OCC)Oc1cc(C)nc(C(C)C)n1 : Potency is inactive

---

settings: Ebola virus entry assay, green fluorescence channel
Entries with a potency or affinity are not part of this list.
Please map values of efficacy to classes as shown: class 0 = under -10%, class 1 = from -10% up to 20%, class 2 = 20% and over

[[record]]
compound = "N=C(N)c1ccc(OCCCCCOc2ccc(C(=N)N)cc2)cc1"
category = "class 2"


Q) Which efficacy category applies to Cc1nc2n(c(=O)c1CCN1CCC(c3noc4cc(F)ccc34)CC1)CCCC2 here?
A) class 2

Q) Which efficacy category applies to COc1cc2nc(N3CCN(C(=O)C4CCCO4)CC3)nc(N)c2cc1OC (centres undefined) here?
A) class 1

Q) Which efficacy category applies to CNCCCN1c2ccccc2CCc2ccccc21 here?
A) class 2

Q) Which efficacy category applies to CN(C)CCc1ccc(O)cc1 here?
A) class 0

Q) Which efficacy category applies to COc1c(C)c2c(c(O)c1C/C=C(\C)CCC(=O)OCCN1CCOCC1)C(=O)OC2 here?
A) class 1

Q) Which efficacy category applies to CCCC1CCCCN1 (centres undefined) here?
A) class 0

Q) Which efficacy category applies to CC(C)(C#N)c1cc(Cn2cncn2)cc(C(C)(C)C#N)c1 here?
A) class 1

Q) Which efficacy category applies to OC(Cn1cncn1)(Cn1cncn1)c1ccc(F)cc1F here?
A) class 0

Q) Which efficacy category applies to CC(C)NCC(O)c1ccc(O)c(O)c1 (centres undefined) here?
A) class 1

Q) Which efficacy category applies to CCn1cc(C(=O)O)c(=O)c2cc(F)c(N3CCNCC3)cc21 here?
A) class 0

Q) Which efficacy category applies to CC1NCCOC1c1ccccc1 (centres undefined) here?
A) class 0

Q) Which efficacy category applies to COC[C@@H](NC(C)=O)C(=O)NCc1ccccc1 here?
A) class 0

Q) Which efficacy category applies to C=CCN1CC[C@]23c4c5ccc(O)c4O[C@H]2C(=O)CC[C@@]3(O)[C@H]1C5 here?
A) class 1

---

test: VSVG counterscreen qHTS to identify inhibitors of SARS-CoV-2 cell entry (AID 1645847); conditions: VSV-G pseudotyped particle entry, luciferase; series mostly up to 57.2 µM; also: potency is read from the fitted curve at half-maximal effect; nearly all actives have a fitted effect of over 65% in size
Inconclusive results are not listed. The source made the active and inactive calls. The call rests on the fitted dose curve.
Parameter: Potency

What the record says about CC(CN(C)C)CN1c2ccccc2CCc2ccccc21 (stereo not drawn) : Potency is 1920 nM (active)

What the record says about CN(C)C(=O)C(CCN1CCC(O)(c2ccc(Cl)cc2)CC1)(c1ccccc1)c1ccccc1 : Potency is 24100 nM (active)

What the record says about C=C(CC)C(=O)c1ccc(OCC(=O)O)c(Cl)c1Cl : Potency is 1920 nM (active)

---

test: qHTS Screen of the MIPE 4.0 Collection Against Ewings Sarcoma (RDES) (AID 1259252); conditions: RD-ES Ewing sarcoma viability, CellTiter-Glo, 48 h; series mostly up to 45.8 µM; also: nearly all actives have a fitted effect of over 35% in size
Records with an inconclusive call do not appear. Active and inactive are the calls of the source. The call rests on the fitted dose curve; in most records, active means well fitted inhibition curve with a large enough effect; inconclusive means small, poorly fitted or top-dose-only effect; inactive means no such curve, though single readings can be large or run the other way.
Hi! Could you answer with just one of these? yes (1) (active), no (0) (inactive)

Answered cases to consult:
[[record]]
compound = "CNC(=O)N1N=C(c2ccc(N)cc2)c2cc3c(cc2CC1C)OCO3 (stereo not drawn)"
category = "yes (1)"

[[record]]
compound = "C[C@@H]1O[C@@H](O[C@H]2C[C@@H](O)[C@]3(CO)[C@H]4[C@H](O)C[C@]5(C)[C@@H](C6=CC(=O)OC6)CC[C@]5(O)[C@@H]4CC[C@]3(O)C2)[C@H](O)[C@H](O)[C@H]1O"
category = "yes (1)"


Now look at this entry.
Q) What was the test verdict on CN(C)CCN(C)CCc1ccc(Cl)c(Cl)c1 ?
A) no (0)

---

Experiment: Quantitative High-Throughput drug screen in 47 multiple myeloma cell lines against the NCATS MIPE library collection: OCIMY7_PLB cell viability assay (AID 1918987); also: nearly all actives have a fitted effect of over 65% in size
Settings: OCI-MY7 myeloma viability, CellTiter-Glo ATP, 48 h; series mostly up to 45.8 µM
Text: PI: Beverly A. Mock Ph.D. Laboratory of Cancer Biology and Genetics, Center for Cancer Research, National Cancer Institute, National Institute of Health, Bethesda, Maryland […] 5; Detector; 425V; Luminescence; Viewlux PerkinElmer. […] 1. […] Briefly, the corresponding myeloma cell lines were screened in 1,536-well plates with 500 cells, 5-uL per well for inhibition of cell viability (assessed by measuring ATP levels with CellTiterGlo). […]
Inconclusive results are not listed. Calls of active or inactive are those of the source. The call rests on the fitted dose curve; in most records, active means well fitted cell-killing curve with a large enough effect; inconclusive means small, poorly fitted or top-dose-only effect, or effect the other way; inactive means no such curve, though single readings can be large or run the other way.
Hi! Could you answer with just one of these? active, inactive

Answered cases to consult:
[[record]]
compound = "COC[C@H]1OC(=O)c2coc3c2[C@@]1(C)C1=C(C3=O)C2CCC(=O)[C@@]2(C)C[C@H]1OC(C)=O (stereo partly drawn)"
category = "active"

[[record]]
compound = "C[C@@H]1[C@@H](CC(C[C@H]2O[C@@H]3O[C@]4(C)CC[C@@H]5[C@H](C)CC[C@@H]([C@H]2C)[C@@]35OO4)C[S+](=O)([O-])c2ccc(COC(=O)N(C)C)cc2)O[C@@H]2O[C@]3(C)CC[C@H]4[C@H](C)CC[C@@H]1[C@@]24OO3 (stereo partly drawn)"
category = "active"


Now look at this entry.
Q) What was the test verdict on Cc1cccc(C)c1NC(=O)CN1CCCC1=O ?
A) inactive

---

system: CP203; test: qHTS profiling for inhibitors of Plasmodium falciparum proliferation (AID 504749); also: nearly all actives have a fitted effect of over 60% in size; conditions: P. falciparum in erythrocytes, SYBR Green DNA, 72 h; series mostly up to 28.7 µM
Inconclusive results are not listed. Active and inactive are the calls of the source. The call rests on the fitted dose curve; in most records, active means well fitted inhibition curve with a large enough effect; inconclusive means small, poorly fitted or top-dose-only effect; inactive means flat fitted curve, though single readings scatter.
Hi! Could you answer with just one of these? Y for active, N for inactive

Answered cases to consult:
[[record]]
molecule = "Clc1ccc(COC(Cn2ccnc2)c2ccc(Cl)cc2Cl)cc1 (centres undefined)"
category = "Y"

[[record]]
molecule = "COc1ccccc1N1CCNCC1"
category = "N"

[[record]]
molecule = "Fc1ccc(C(OCCN2CCN(CCCc3ccccc3)CC2)c2ccc(F)cc2)cc1"
category = "Y"


Now look at this entry.
Q) What was the test verdict on C=C(C)[C@H]1Cc2c(ccc3c2O[C@@H]2COc4cc(OC)c(OC)cc4[C@@H]2C3=O)O1 ?
A) N

---

experiment: Inducers of the Endoplasmic Reticulum Stress Response (ERSR) in human glioma: Validation (AID 504836); settings: human glioma cells, ER stress response reporter; series mostly up to 38.3 µM; also: 0% is about no effect
Active and inactive are the calls of the source. Calls follow the shape of the dose curve; as a rule, active = well fitted curve in the direction sought with a large enough effect; inconclusive = small, poorly fitted or top-dose-only effect, or effect the other way, or another doubt; inactive = no such curve, though single readings can be large or run the other way.
Parameter: outcome

[[record]]
record_smiles = "CNCCCC1c2ccccc2C=Cc2ccccc21"
test_value = "inactive"

[[record]]
record_smiles = "CN(C)CC/C=C1\\c2ccccc2COc2ccccc21"
test_value = "inactive"

[[record]]
record_smiles = "OCCN1CCN(CCCN2c3ccccc3Sc3ccc(C(F)(F)F)cc32)CC1"
test_value = "inactive"

[[record]]
record_smiles = "O=C1Cc2cc(CCN3CCN(c4nsc5ccccc45)CC3)c(Cl)cc2N1"
test_value = "inactive"

[[record]]
record_smiles = "Cc1cn([C@H]2C[C@H](N=[N+]=[N-])[C@@H](CO)O2)c(=O)[nH]c1=O"
test_value = "inactive"

[[record]]
record_smiles = "Nc1nnc(-c2cccc(Cl)c2Cl)c(N)n1"
test_value = "inactive"

[[record]]
record_smiles = "COc1ccc([C@@H]2Sc3ccccc3N(CCN(C)C)C(=O)[C@@H]2OC(C)=O)cc1"
test_value = "inactive"

[[record]]
record_smiles = "CN(C)C(=O)C(CCN1CCC(O)(c2ccc(Cl)cc2)CC1)(c1ccccc1)c1ccccc1"
test_value = "inactive"


What the record says about COc1ccc(Cc2nccc3cc(OC)c(OC)cc23)cc1OC : outcome is inactive

What the record says about Nc1nc2c(ncn2COCCO)c(=O)[nH]1 : outcome is inactive

What the record says about CC(=O)O[C@]1(C(C)=O)CC[C@H]2[C@@H]3C=C(Cl)C4=CC(=O)[C@@H]5C[C@@H]5[C@]4(C)[C@H]3CC[C@@]21C : outcome is inactive

What the record says about NNc1nncc2ccccc12 : outcome is inactive
